experiment: Metabolic stability in ICR/CD-1 mouse liver microsomes assessed as intrinsic clearance preincubated for 5 mins followed by NADPH addition and measured up to 45 mins by LC/MS analysis; type: ADME, Microsome; conditions: time 50 min, read-out: CLH
CLint scaled values by entry
measurementType: CLint scaled

>>> observed("CC(C)(Oc1ccc(Cl)cc1)C(=O)Nc1ccc(OCc2ccc(C#N)cc2)cc1")
"152 mL/min/kg"
>>> observed("O=C(c1ccc(F)cc1)C1CCN(CCn2c(=O)[nH]c3ccccc3c2=O)CC1")
"258 mL/min/kg"

---

remaining at 0.75 h values by entry
experiment: Metabolic stability in human liver microsomes assessed as compound remaining preincubated for 5 mins followed by NADPH addition and measured up to 45 mins by LC/MS analysis; type: ADME, Microsome; details: time 50 min, read-out: Stabilty
measurementType: remaining at 0.75 h (%)

>>> observed("CC(C)(Oc1ccc(Cl)cc1)C(=O)Nc1ccc(OCc2ccc(C#N)cc2)cc1")
74
>>> observed("CC(C)(Oc1ccc(Cl)cc1)C(=O)Nc1ccc(OCc2ccc(C(F)(F)F)cc2)cc1")
93
